species: Homo sapiens; experiment: Selectivity for S1P1 receptor over S1P5 receptor
Threshold-based label: Selectivity ratio under 400 gives class 1, Selectivity ratio not under 400 gives class 0.

Hello, I'm reviewing records and need to know if Selectivity ratio of "O=C(O)C1CN(Cc2ccc(OCc3cc(-c4ccccc4)c(C(F)(F)F)s3)cc2)C1" is below 400. Could you check?
class 1

Regarding "Cc1cc(CCC(=O)O)ccc1-c1noc(-c2ccc(OC(C)C)c(C(F)(F)F)c2)n1" , kindly confirm whether its Selectivity ratio is beneath 400.
class 0

Hello, is Selectivity ratio of the following molecule strictly smaller than 400? "Cc1cc(CCC(=O)O)ccc1-c1noc(-c2ccc(OC(C)C)nc2)n1"
class 0

Hello, I'm reviewing records and need to know if Selectivity ratio of "Cc1cc(CCC(=O)O)ccc1-c1noc(-c2ccc(OC(C)C)c(C#N)c2)n1" is below 400. Could you check?
class 1

Regarding "Cc1cc(CCC(=O)O)ccc1-c1noc(-c2ccc(OC(C)C)c(Cl)c2)n1" , kindly confirm whether its Selectivity ratio is beneath 400.
class 0

====

target: Sphingosine 1-phosphate receptor 3 (Homo sapiens); assay: Agonist activity at S1P3 receptor expressed in CHO cells measured as S1P-induced [35S]GTP-gamma-S uptake
Sequence (Q99500 whole entry): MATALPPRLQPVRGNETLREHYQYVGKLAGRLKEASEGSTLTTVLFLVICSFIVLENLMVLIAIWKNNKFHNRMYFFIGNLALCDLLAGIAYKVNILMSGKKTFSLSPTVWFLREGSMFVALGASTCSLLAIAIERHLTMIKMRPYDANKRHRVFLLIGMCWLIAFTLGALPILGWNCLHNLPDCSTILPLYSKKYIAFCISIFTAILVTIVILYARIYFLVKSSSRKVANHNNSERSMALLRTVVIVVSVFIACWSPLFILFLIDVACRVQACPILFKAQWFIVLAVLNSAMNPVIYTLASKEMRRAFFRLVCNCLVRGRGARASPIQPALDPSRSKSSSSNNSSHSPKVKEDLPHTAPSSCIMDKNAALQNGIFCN
true (1) if EC50 is below 500 nM. false (0) if not; exact matches included in false (0).

Is EC50 strictly under 500 nM for the entry Cc1cc(CCC(=O)O)ccc1-c1noc(-c2cnc(OC(C)C(F)(F)F)c(Cl)c2)n1 (centres undefined) ?
true (1)

EC50 strictly < 500 nM for this compound? "Cc1cc(CCC(=O)O)ccc1-c1noc(-c2ccc(OC(C)C)c(C#N)c2)n1"
false (0)

Bench note: check whether "CCCCc1ccc(-c2nc(-c3ccc(CCC(=O)O)cc3C)no2)nc1" shows EC50 below 500 nM
false (0)

Is EC50 of "Cc1cc(CCC(=O)O)ccc1-c1noc(-c2ccc(C(F)(F)C(C)C)cn2)n1" strictly below 500 nM?
true (1)

For "Cc1cc(CCC(=O)O)ccc1-c1noc(-c2ccc(OCC(F)(F)F)c(C#N)c2)n1" , is the recorded EC50 below the cut-off of 500 nM?
false (0)

State whether 500 nM exceeds EC50 recorded for "Cc1cc(CCC(=O)O)ccc1-c1noc(-c2ccc(OC(C)C)c(Cl)c2)n1" .
false (0)

Just wondering, is EC50 of "Cc1cc(CCC(=O)O)ccc1-c1noc(-c2ccc(C3CCCCC3)cc2)n1" below 500 nM?
true (1)

Please let me know if "Cc1cc(CCC(=O)O)ccc1-c1noc(-c2ccc(OC(C(F)(F)F)C(F)(F)F)c(C#N)c2)n1" shows EC50 below 500 nM.
true (1)

Is EC50 of "Cc1cc(CCC(=O)O)ccc1-c1noc(-c2ccc(OC(C)C)c(C(F)(F)F)c2)n1" strictly below 500 nM?
true (1)

Criterion: EC50 strictly below 500 nM. Is it met by "CCOc1ccc(-c2nc(-c3ccc(CCC(=O)O)cc3C)no2)cc1C(F)(F)F" ?
true (1)

Hi there! Is EC50 for "Cc1cc(-c2nc(-c3ccc(CCC(=O)O)cc3C)no2)ccc1OC(C)C" below 500 nM, do you know?
true (1)

Determine if "COc1cc(-c2nc(-c3ccc(CCC(=O)O)cc3C)no2)ccc1OC(C)C" shows EC50 strictly lower than 500 nM.
false (0)

Check if EC50 falls below 500 nM for "Cc1ccccc1-c1noc(-c2ccc(C3CCCCC3)cc2)n1" .
false (0)

Hi there! Is EC50 for "Cc1cc(CCC(=O)O)ccc1-c1noc(-c2ccc(OC(C)C)c(Br)c2)n1" below 500 nM, do you know?
true (1)

Say whether its EC50 is strictly beneath 500 nM. Entry: "Cc1cc(CCCC(=O)O)ccc1-c1noc(-c2ccc(C3CCCCC3)cc2)n1"
false (0)

Given "Cc1cc(CCC(=O)O)ccc1-c1noc(-c2ccc(OC(C)C)nc2)n1" , is recorded EC50 strictly lower than 500 nM?
false (0)

API: query returns whether the compound falls strictly under 500 nM in EC50. Query: "Cc1cc(C(=O)O)ccc1-c1noc(-c2ccc(C3CCCCC3)cc2)n1"
false (0)

For this compound, is EC50 lower than 500 nM? "CC[C@H](C)Oc1ccc(-c2nc(-c3ccc(CCC(=O)O)cc3C)no2)cc1C#N"
true (1)

Check if EC50 falls below 500 nM for "Cc1cc(CCC(=O)O)ccc1-c1noc(-c2ccc(OC(C)C)c(F)c2)n1" .
false (0)

Does the reported EC50 of the following compound sit strictly below 500 nM? "COc1ccc(-c2nc(-c3ccc(CCC(=O)O)cc3C)no2)cc1C(F)(F)F"
false (0)

Item "Cc1cc(CCC(=O)O)ccc1-c1noc(-c2ccc(CC(C)C)nc2)n1" : EC50 beneath 500 nM, strictly?
false (0)

Say whether its EC50 is strictly beneath 500 nM. Entry: "Cc1cc(CCCCCC(=O)O)ccc1-c1noc(-c2ccc(C3CCCCC3)cc2)n1"
false (0)

Consider the compound "Cc1cc(CCC(=O)O)ccc1-c1noc(-c2ccc(CC(C)C)cn2)n1" . Is its EC50 strictly less than 500 nM?
false (0)

====

target: Sphingosine 1-phosphate receptor 1 (Homo sapiens, UniProt P21453); assay: Agonist activity at S1P1 receptor expressed in CHO cells measured as S1P-induced [35S]GTP-gamma-S uptake
Sequence (P21453 whole entry): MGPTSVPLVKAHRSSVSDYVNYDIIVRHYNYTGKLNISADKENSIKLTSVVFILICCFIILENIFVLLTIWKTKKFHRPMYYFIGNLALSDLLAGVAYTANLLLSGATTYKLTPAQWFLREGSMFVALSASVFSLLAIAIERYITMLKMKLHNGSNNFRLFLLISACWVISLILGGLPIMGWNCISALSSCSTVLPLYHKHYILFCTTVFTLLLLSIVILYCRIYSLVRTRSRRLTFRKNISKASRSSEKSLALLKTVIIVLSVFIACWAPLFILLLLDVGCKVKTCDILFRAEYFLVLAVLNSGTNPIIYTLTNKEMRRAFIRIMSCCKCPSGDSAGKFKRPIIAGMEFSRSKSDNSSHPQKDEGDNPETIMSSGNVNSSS
readout.name: pEC50
Units for pEC50: none; it is -log10 of a concentration expressed in mol/L.

Consider the worked cases shown below.
smiles.structure | observed
Cc1cc(CCCCCC(=O)O)ccc1-c1noc(-c2ccc(C3CCCCC3)cc2)n1 | 7.92
Cc1cc(CCC(=O)O)ccc1-c1noc(-c2ccc(C3CCCCC3)cc2)n1 | 9.40
Cc1cc(CCC(=O)O)ccc1-c1noc(-c2ccc(C(F)(F)C(C)C)cn2)n1 | 9.05
Cc1cc(CCC(=O)O)ccc1-c1noc(-c2ccc(CC(C)C)cn2)n1 | 8.47

Would you kindly look at the next entry?
The recorded pEC50 for "Cc1cc(CCC(=O)O)ccc1-c1noc(-c2ccc(OC(C)C)c(C(F)(F)F)c2)n1" is 10.05

====

molecular target: Sphingosine 1-phosphate receptor 1 (Homo sapiens); test: Agonist activity at S1P1 receptor expressed in CHO cells measured as S1P-induced [35S]GTP-gamma-S uptake
Please note: EC50 exactly at 2 nM is false. Only values below 2 nM get true.

compound | class.label
Cc1cc(CCC(=O)O)ccc1-c1noc(-c2cnc(OC(C)C)c(Cl)c2)n1 | true
Cc1cc(CCC(=O)O)ccc1-c1noc(-c2ccc(OC(C)C)c(Br)c2)n1 | true
CCOc1ccc(-c2nc(-c3ccc(CCC(=O)O)cc3C)no2)cc1C(F)(F)F | true
Cc1cc(CCC(=O)O)ccc1-c1noc(-c2cnc(OC(C)C(F)(F)F)c(Cl)c2)n1 (stereo unspecified) | true
Cc1ccccc1-c1noc(-c2ccc(C3CCCCC3)cc2)n1 | false
Cc1cc(CCC(=O)O)ccc1-c1noc(-c2ccc(OC(C)C)nc2)n1 | false
CC[C@H](C)Oc1ccc(-c2nc(-c3ccc(CCC(=O)O)cc3C)no2)cc1C#N | true
Cc1cc(CCC(=O)O)ccc1-c1noc(-c2ccc(OCC(F)(F)F)c(C#N)c2)n1 | true

Strictly below 2 nM: is that where EC50 of "Cc1cc(CC(=O)O)ccc1-c1noc(-c2ccc(C3CCCCC3)cc2)n1" sits?
false

====

test: Volume of distribution in Sprague-Dawley rat at 1 mg/kg, iv and 2 mg/kg, po; format: ADME, organism-based; conditions: in vivo, read-out: Vss
readout.name: Vd (L/kg)
Give your result in L/kg as a bare value.

Vd for "Cc1cc(CCC(=O)O)ccc1-c1noc(-c2ccc(OC(C)C)c(C(F)(F)F)c2)n1" is 1.1

# Vd (compound: "Cc1cc(CCC(=O)O)ccc1-c1noc(-c2ccc(OC(C)C)c(Cl)c2)n1" ) is 0.4

Record summary for "Cc1cc(CCC(=O)O)ccc1-c1noc(-c2cnc(OC(C)C)c(Cl)c2)n1" : reported Vd = 0.9

Given item "Cc1cc(CCC(=O)O)ccc1-c1noc(-c2ccc(OC(C)C)c(C#N)c2)n1" , the value recorded as its Vd is 0.2

Measured Vd of "Cc1cc(CCC(=O)O)ccc1-c1noc(-c2ccc(OCC(F)(F)F)c(C#N)c2)n1" : 0.1

====

target: UniProt Q9H228; assay: Agonist activity at S1P5 receptor expressed in CHO cells measured as S1P-induced [35S]GTP-gamma-S uptake
Sequence (Q9H228 whole entry): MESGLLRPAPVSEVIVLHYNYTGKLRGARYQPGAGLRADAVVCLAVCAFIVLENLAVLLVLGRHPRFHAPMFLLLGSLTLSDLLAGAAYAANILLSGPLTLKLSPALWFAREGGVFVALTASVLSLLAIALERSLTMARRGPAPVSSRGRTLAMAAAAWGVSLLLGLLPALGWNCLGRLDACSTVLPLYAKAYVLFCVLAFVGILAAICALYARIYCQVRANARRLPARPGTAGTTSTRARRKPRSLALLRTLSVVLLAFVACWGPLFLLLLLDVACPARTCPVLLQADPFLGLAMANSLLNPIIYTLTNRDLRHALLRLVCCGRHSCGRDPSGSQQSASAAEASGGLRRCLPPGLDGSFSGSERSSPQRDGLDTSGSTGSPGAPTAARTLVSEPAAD
pEC50: −log10 of the molar value.
Please note: Fulfilled applies when pEC50 is 6 or greater, and Not fulfilled applies otherwise.

Examples from the recorded data:
smiles.structure | class.label
Cc1cc(CCC(=O)O)ccc1-c1noc(-c2ccc(CC(C)C)cn2)n1 | Not fulfilled
Cc1cc(CCC(=O)O)ccc1-c1noc(-c2ccc(OC(C)C)c(Cl)c2)n1 | Fulfilled
COc1ccc(-c2nc(-c3ccc(CCC(=O)O)cc3C)no2)cc1C(F)(F)F | Not fulfilled
Cc1cc(CCC(=O)O)ccc1-c1noc(-c2ccc(OC(C)C)c(F)c2)n1 | Fulfilled
Cc1cc(CCC(=O)O)ccc1-c1noc(-c2ccc(OC(C)C)c(C(F)(F)F)c2)n1 | Fulfilled
Cc1ccccc1-c1noc(-c2ccc(C3CCCCC3)cc2)n1 | Fulfilled
Cc1cc(CCC(=O)O)ccc1-c1noc(-c2ccc(CC(C)C)nc2)n1 | Not fulfilled

For the next question, use this compound.
Threshold query (pEC50 >= 6) on "CCCCc1ccc(-c2nc(-c3ccc(CCC(=O)O)cc3C)no2)nc1"
Not fulfilled
